# System: U2OS
# protocolDescription: Multiplex assay against U2OS
# Format: toxicity, cell-based
# assayConditions: human, 12 h, 1 µM, compound concentration 1 uM, replicate 1
Entries whose Population Tubulin-Different-Phenotype (%) is below 20% take true (1); entries at or above 20% take false (0).

Input line: Say whether its Population Tubulin-Different-Phenotype (%) is strictly beneath 20%. Entry: `C=C1/C(=C\C=C2/CCC[C@]3(C)[C@@H]([C@H](C)/C=C/[C@H](C)C(C)C)CC[C@@H]23)C[C@@H](O)C[C@@H]1O`
Output line: true (1)

Input line: Lab note: confirm whether the reported Population Tubulin-Different-Phenotype (%) for this molecule is below 20%, equality not counting. molecule: `CCc1cccc(CC)c1NC(=O)c1nn(C)c2c1CCc1cnc(Nc3ccc(C(=O)NC4CCN(C)CC4)cc3OC(F)(F)F)nc1-2`
Output line: true (1)

Input line: Does this molecule meet the criterion Population Tubulin-Different-Phenotype (%) < 20%? `CCN1CCN(Cc2ccc(Nc3ncc(F)c(-c4cc(F)c5nc(C)n(C(C)C)c5c4)n3)nc2)CC1.CS(=O)(=O)O`
Output line: false (0)

Input line: Regarding `O=C1N/C(=N/c2ccccc2F)S/C1=C\c1ccc(C(=O)O)cc1` , kindly confirm whether its Population Tubulin-Different-Phenotype (%) is beneath 20%.
Output line: true (1)

Input line: hey, is Population Tubulin-Different-Phenotype (%) for `Cl.O=C(c1ccc(Nc2nccc(-c3cc4ccccc4s3)n2)cc1)N1CCC(N2CCCC2)CC1` lower than 20% or not?
Output line: true (1)

###

# Tested on: U2OS
# protocolDescription: Multiplex assay against U2OS
# Type: toxicity, cell-based
# assayConditions: human, 12 h, 10 µM, compound concentration 10 uM, replicate 1
observable: Population Normal (%)
The answer is to be given in %; state only the numeric part.

Below, 8 compounds whose answers are already recorded.
>  <compound>
CCOc1cc(C(=O)N2CCC(N3CCN(C)CC3)CC2)ccc1Nc1ncc2c(n1)N(C1CCCC1)c1ccccc1C(=O)N2C

>  <experimentalSystem>
U2OS

>  <Population Normal (%)>
92

$$$$
>  <compound>
CN1C2CCC1CC(OC(c1ccc(F)cc1)c1ccc(F)cc1)C2.Cl (centres undefined)

>  <experimentalSystem>
U2OS

>  <Population Normal (%)>
95

$$$$
>  <compound>
Cc1ccc(C(=O)Nc2cccc(C(F)(F)F)c2)cc1Nc1nc(-c2cccnc2)nc2c1cnn2C

>  <experimentalSystem>
U2OS

>  <Population Normal (%)>
93

$$$$
>  <compound>
CN1CCN(C(=O)C(C)(C)c2ccc(C(=O)Nc3cn4cc(-c5ccncc5)ccc4n3)cc2)CC1

>  <experimentalSystem>
U2OS

>  <Population Normal (%)>
94

$$$$
>  <compound>
CCCS(=O)(=O)c1nc(NC2CC2)cc(-c2ccc3c(ccn3C3CC(C)(C)NC(C)(C)C3)c2)n1

>  <experimentalSystem>
U2OS

>  <Population Normal (%)>
93

$$$$
>  <compound>
COc1cc(N2CCN(C)CC2)ccc1Nc1ncc2c(n1)N(C)c1ccccc1C(=O)N2C

>  <experimentalSystem>
U2OS

>  <Population Normal (%)>
92

$$$$
>  <compound>
CCc1cccc(CC)c1NC(=O)c1nn(C)c2c1CCc1cnc(Nc3ccc(N4CCN(C)CC4)cc3OC)nc1-2

>  <experimentalSystem>
U2OS

>  <Population Normal (%)>
97

$$$$
>  <compound>
O=C(Nc1ccc(-c2ccnc(Nc3ccc(N4CCOCC4)cc3)n2)cc1)[C@@H]1CCCN1

>  <experimentalSystem>
U2OS

>  <Population Normal (%)>
92

$$$$

Input line: // returns reported Population Normal (%) for input `Cl.O=c1c2cccn2c2ccccc2n1CCCN1CCC(c2ccc(Cl)cc2)CC1`
Output line: 91

###

Quick reference for Population Healthy Nuclei (%) among some compounds
# System: HEK-293T
# protocolDescription: Multiplex assay against HEK293T
# Format: toxicity, cell-based
# assayConditions: human, 12 h, 1 µM, compound concentration 1 uM, replicate 2
Please state the number and follow it with the unit.

>  <compound>
CCc1cccc(CC)c1NC(=O)c1nn(C)c2c1CCc1cnc(Nc3ccc(C(=O)NC4CCN(C)CC4)cc3OC(F)(F)F)nc1-2

>  <Population Healthy Nuclei (%)>
39%

$$$$

Input line: Entry `CCOc1cc2ncc(C#N)c(Nc3ccc(OCc4ccccn4)c(Cl)c3)c2cc1NC(=O)/C=C/CN(C)C` : reported Population Healthy Nuclei (%) = ?
Output line: 46%

Input line: Need Population Healthy Nuclei (%), item CN1C2CCC1CC(OC(c1ccc(F)cc1)c1ccc(F)cc1)C2.Cl (stereo unspecified)
Output line: 43%

Input line: // returns reported Population Healthy Nuclei (%) for input `C=C1/C(=C\C=C2/CCC[C@]3(C)[C@@H]([C@H](C)/C=C/[C@H](C)C(C)C)CC[C@@H]23)C[C@@H](O)C[C@@H]1O`
Output line: 44%

Input line: What does the data say about its Population Healthy Nuclei (%)? Entry: `CCCS(=O)(=O)c1nc(NC2CC2)cc(-c2ccc3c(ccn3C3CC(C)(C)NC(C)(C)C3)c2)n1`
Output line: 24%

Input line: What does the data say about its Population Healthy Nuclei (%)? Entry: `Cc1ccc2nc(NCCN)c3ncc(C)n3c2c1.O=C(O)C(F)(F)F.O=C(O)C(F)(F)F`
Output line: 85%

###

# Test system: U2OS
# protocolDescription: Incucyte cell viability with U2OS; also: filed as whole numbers so only -1 and 0 and 1 occur
# Assay type: toxicity, cell-based
# assayConditions: human, 12 h, 10 µM, compound concentration 10 uM, replicate number 1, timepoint 12 hours
Listing of recorded Growth Rate by entry.
# output: bare number, no unit

>  <molecule>
NS(=O)(=O)c1c(Cl)ccc(NC(=O)Nc2cccc(Cl)c2Cl)c1O

>  <Growth Rate>
0

$$$$
>  <molecule>
CCOc1cc(C(=O)N2CCC(N3CCN(C)CC3)CC2)ccc1Nc1ncc2c(n1)N(C1CCCC1)c1ccccc1C(=O)N2C

>  <Growth Rate>
0

$$$$
>  <molecule>
O=C1NC(=O)C(c2cnc3ccccn23)=C1c1cn2c3c(cc(F)cc13)CN(C(=O)N1CCCCC1)CC2

>  <Growth Rate>
0

$$$$
>  <molecule>
CC(=O)N1CCC(c2ccc(C(=O)NC(=N)N)cc2C(F)(F)F)CC1

>  <Growth Rate>
1

$$$$
>  <molecule>
CC1(C)CCC(C)(C)c2cc(NC(=O)c3ccc(C(=O)O)cc3)ccc21

>  <Growth Rate>
0

$$$$
>  <molecule>
O=C(NOCC1CC1)c1ccc(F)c(F)c1Nc1ccc(I)cc1Cl

>  <Growth Rate>
0

$$$$

Input line: Query: Growth Rate; subject: `Nc1cc(F)ccc1NC(=O)/C=C/c1cnn(C/C=C/c2ccccc2)c1`
Output line: 1

Input line: Find the recorded Growth Rate belonging to `FC(F)(F)c1cccc(-c2noc(-c3cc(-c4ccccc4)c(C(F)(F)F)s3)n2)c1` and report it.
Output line: 1

Input line: Could you share which Growth Rate value was measured for NC(CCP(=O)(O)O)C(=O)O (racemic) ?
Output line: 1

###

# Tested on: U2OS
# protocolDescription: Multiplex assay against U2OS
# Assay type: toxicity, cell-based
# assayConditions: human, 12 h, 10 µM, compound concentration 10 uM, replicate 2
Would you mind labelling by Population Pyknosed Nuclei (%)? At or over 20% is 1, under is 0.

>  <molecule>
Cc1ccc2nc(NCCN)c3ncc(C)n3c2c1.O=C(O)C(F)(F)F.O=C(O)C(F)(F)F

>  <classLabel>
0

$$$$
>  <molecule>
CCOc1cc(C(=O)N2CCC(N3CCN(C)CC3)CC2)ccc1Nc1ncc2c(n1)N(C1CCCC1)c1ccccc1C(=O)N2C

>  <classLabel>
1

$$$$
>  <molecule>
CN(C)C(=O)C(CCN1CCC(O)(c2ccc(Cl)cc2)CC1)(c1ccccc1)c1ccccc1.Cl [LOPERAMIDE HYDROCHLORIDE]

>  <classLabel>
1

$$$$
>  <molecule>
O=C(Nc1ccc(Cl)cc1)Nc1cccc(-c2cccc(N3CCCC3)n2)c1

>  <classLabel>
0

$$$$
>  <molecule>
O=C(Nc1cccnn1)N1CCC(=Cc2cccc(Oc3ccc(C(F)(F)F)cn3)c2)CC1

>  <classLabel>
0

$$$$
>  <molecule>
COCC(=O)NC/C=C/c1ccc2ncnc(Nc3ccc(Oc4ccc(C)nc4)c(C)c3)c2c1

>  <classLabel>
0

$$$$

Input line: Please check the record `Cl.Oc1ccc2c3c1O[C@H]1c4[nH]c5c(c4C[C@@]4(O)[C@@H](C2)N(CC2CC2)CC[C@]314)C[C@@]1(O)[C@H]2Cc3ccc(O)c4c3[C@@]1(CCN2CC1CC1)[C@H]5O4` and state if its Population Pyknosed Nuclei (%) is at or above 20%.
Output line: 1

Input line: Given the entry `C=CCn1c(=O)c2cnc(Nc3ccc(N4CCN(C)CC4)cc3)nc2n1-c1cccc(C(C)(C)O)n1` , answer whether its Population Pyknosed Nuclei (%) meets or surpasses 20%.
Output line: 1

Input line: Is reported Population Pyknosed Nuclei (%) greater than or equal to 20% here: `CNC(=O)c1ccc(Nc2nc(OC3CCCC3)c3c(-c4ccc5nc(C)oc5c4)c[nH]c3n2)c(OC)c1`
Output line: 0

Input line: Confirm if Population Pyknosed Nuclei (%) reported for the molecule `CCCn1c(=O)c2[nH]c(-c3cnn(Cc4cccc(C(F)(F)F)c4)c3)nc2n(CC)c1=O` is 20% or above.
Output line: 0

Input line: Is reported Population Pyknosed Nuclei (%) greater than or equal to 20% here: `O=C1N/C(=N/c2ccccc2F)S/C1=C\c1ccc(C(=O)O)cc1`
Output line: 0

Input line: Please check the record `COc1cc(N2CCN(C)CC2)ccc1Nc1ncc2c(n1)N(C)c1ccccc1C(=O)N2C` and state if its Population Pyknosed Nuclei (%) is at or above 20%.
Output line: 1
